Entries and their pEC50 values follow.
Target: T1, monkey IGF-1R (on COS-7 cells) (African green monkey)
T1 construct: whole, on cells
Test: FACS titration, Cos-7
The scale used: pEC50 is minus the common logarithm of the concentration in molar units.

pEC50 recorded for this binder, hz208F2 H047/L018 (antibody, human IgG1, kappa, V domains shown, humanized 208F2 variant) VH: QVQLVQSGAEVKKPGASVKVSCKASGYTFTSYYIHWVRQAPGQGLEWMGWIWPGDGSTKYAQKFQGRVTMTRDTSSNTVYMELSSLRSEDTAVYYCASPMITPNYAMDYWGQGTLVTVSS VL: DIQMTQSPSSLSASVGDRVTITCRASQDISKYLNWYQQKPGKAPKLLIYYTSRLQSGVPSRFSGRGSGTDYSLTISSLQPEDFATYFCQQGSTLPYTFGGGTKVEIKR , is 9.04

pEC50 recorded for this binder, hz208F2 H037/L018 (antibody, human IgG1, kappa, V domains shown, humanized 208F2 variant) VH: QVQLVQSGAEVKKPGASVKVSCKASGYTFTSYYMHWVRQAPGQGLEWMGWIWPGDGSTKYAQKFQGRVTMTRDKSSSTVYMELSSLRSEDTAVYFCASPMITPNYAMDYWGQGTLVTVSS VL: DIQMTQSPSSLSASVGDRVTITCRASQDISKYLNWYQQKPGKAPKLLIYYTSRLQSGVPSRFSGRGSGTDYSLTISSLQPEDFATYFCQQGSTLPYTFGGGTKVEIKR , is 9.13

pEC50 recorded for this binder, hz208F2 H057/L018 (antibody, human IgG1, kappa, V domains shown, humanized 208F2 variant) VH: QVQLVQSGAEVKKPGASVKVSCKASGYTFTSYYIHWVRQAPGQGLEWMGWIWPGDGSTKYAQKFQGRVTMTRDKSTNTVYMELSSLRSEDTAVYYCASPMITPNYAMDYWGQGTLVTVSS VL: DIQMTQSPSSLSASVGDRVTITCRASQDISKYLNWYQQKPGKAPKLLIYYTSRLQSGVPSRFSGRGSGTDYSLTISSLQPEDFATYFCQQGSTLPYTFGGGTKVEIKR , is 9.08
